Assignment: determine reported z-score for the given compounds.
Study Target: NADPH oxidase 4 (Homo sapiens)
Experiment Summary: NOX4-dependent H2O2 signal modulators, primary screen, NOX inhibitor project, cell-based, HEK293-NOX4, tetracycline-induced, Amplex Red fluorescence (AID 1160)
Measurement Conditions: 45 min, higher = more signal, called active from +8 up or from −8 down
Activity calls are given as the source filed them.

[in] Quick one: z-score of CC(C)(C)OC(=O)CC[C@]1(C(=O)NCCN2CCOCC2)N=C(c2ccc(OCCCO)cc2)O[C@H]1c1ccccc1CN=[N+]=[N-] ?
[out] 0.755 (inactive)

[in] Name the recorded z-score for CC[C@@H]1C=C(C(=O)O)[C@H](c2ccccc2)N1S(=O)(=O)c1ccc([N+](=O)[O-])cc1 .
[out] -0.0428 (inactive)

[in] Record request: z-score value, item CC(C)[Si]1(C(C)C)OCc2cc(C3CC3)nc(-c3ccccc3)c21
[out] 1.06 (inactive)

[in] z-score lookup needed for CCCN1C(=O)[C@@]2(CCS(=O)(=O)c3ccccc3)N=C(c3ccc(OCCCO)cc3)O[C@H]2c2ccccc21 , thanks.
[out] -0.683 (inactive)

[in] Quick one: z-score of CCN1C(C)=C(C(=O)OC)[C@@H](c2ccccc2)N2C(=O)[C@@]3(C(=O)OC)O[C@@]12[C@@H]1C(=O)CCC[C@@H]13 ?
[out] 1.11 (inactive)

[in] Please look up its z-score: CCOC(=O)C1=CC[C@@H](c2ccc(-c3ccc(OCc4ccccc4)cc3)c(OC)c2)N(S(=O)(=O)c2ccc(C)cc2)[C@H]1c1ccccc1
[out] 0.643 (inactive)

[in] I have this compound here, CO[C@@H]1COC(=O)CC=C[C@@H](C)[C@H](OC)COC(=O)CC=C[C@H]1C , and I need its recorded z-score.
[out] 0.276 (inactive)

[in] Quick one: z-score of C[N+](C)(C)CCCCNC(=O)[C@@H]1C[C@@H]2C(=O)N3CCC[C@H]3C(=O)N2[C@@H]1c1cccc(OCCO)c1 ?
[out] -0.183 (inactive)

* * *

Study Target: NADPH oxidase 5 (Homo sapiens)
Experiment Summary: NOX5-dependent H2O2 signal modulators, primary screen, NOX inhibitor project, cell-based, HEK293-NOX5, Amplex Red fluorescence (AID 1161)
Measurement Conditions: HEK293-NOX5, ionomycin, 45 min, higher = more signal
Label rule, in plain words: z-score of -0.3 and up is 1, under -0.3 is 0.

[in] Could you verify whether the entry COCCOC(=O)N1C(=O)[C@@]2(c3cc(C#CCC(C(=O)OC)C(=O)OC)ccc31)[C@H](c1ccccc1OCCO)N1[C@H](c3ccccc3)[C@H](c3ccccc3)OC(=O)[C@H]1[C@@H]2C(=O)N1CCCCCCC1 shows z-score of no less than -0.3?
[out] 1

[in] Confirm if z-score reported for the compound COCCOC(=O)N1C(=O)[C@@]2(c3cc(C#CC4=CCCCC4)ccc31)[C@H](C(=O)NC[C@H](O)c1ccccc1)[C@H]1C(=O)O[C@H](c3ccccc3)[C@H](c3ccccc3)N1[C@@H]2c1ccc(OCCO)cc1 is -0.3 or above.
[out] 1

[in] # bool: z-score of CN1C(=O)C2C=CC(C(O)c3ccc(N(C)C)cc3)N(Nc3ccc([N+](=O)[O-])cc3[N+](=O)[O-])C2C1=O (configuration not stated) >= -0.3
[out] 1

[in] Is reported z-score greater than or equal to -0.3 here: Cc1ccc(S[C@]2(C(=O)NC(C)C)CC(=O)N(Cc3cc(C(F)(F)F)cc(C(F)(F)F)c3)[C@@H]2c2ccc(CO)cc2I)cc1
[out] 1

[in] Has CC(C)[C@H]1NC(=O)[C@@]23C(=O)N[C@@H](Cc4ccccc4)C2[C@H](C)[C@@]2(C)O[C@H]2C3/C=C/C/C=C\CNC(=O)[C@H](C)NC1=O (some centres not stated) a recorded z-score greater than or equal to -0.3?
[out] 1

[in] Please check the record CCc1cccc(NC(=O)O[C@H]2[C@H](OC(=O)Nc3ccccc3)[C@@H](OC(=O)Nc3ccccc3)[C@@H](OC)O[C@@H]2CO)c1 and state if its z-score is at or above -0.3.
[out] 0

[in] Is it the case that C#C[C@H](O[Si](C#Cc1ccccc1)(C(C)C)C(C)C)c1ccccc1 has z-score reaching or exceeding -0.3?
[out] 0

[in] Reported z-score at or above -0.3? CCOC(=O)C[C@H]1[C@H](OC(=O)c2ccccc2-c2ccccc2)[C@@H](NC(=O)c2ccc(-c3ccccc3)cc2)c2cc(OCCCO)ccc2N1C(=O)Cc1ccc(OC)cc1
[out] 1

[in] In plain terms: is recorded z-score at least -0.3 for CCN1C(C)=C(C(=O)OC)[C@@H](c2ccccc2)N2C(=O)[C@](O)(C(=O)OC)[C@@H](c3ccccc3)C(C(C)=O)=C12 ?
[out] 1

[in] Hi, just wondering whether C=CCC(OC(C)=O)[C@@H]1[C@@H](N(Cc2cc3ccccc3o2)C(=O)c2ccc(C)cc2)c2cc(OCCCO)ccc2N1C(=O)c1ccc2ccccc2n1 (some centres not stated) shows z-score of -0.3 or higher.
[out] 1

[in] Exam item: decide whether the reported z-score for O=C1O[C@H](c2ccccc2)[C@H](c2ccccc2)N2[C@H]1[C@@H](C(=O)Nc1nc3ccccc3s1)[C@]1(C(=O)Nc3ccc(C#CC4(O)CCCCCC4)cc31)[C@H]2c1ccc(O)cc1 is at least -0.3.
[out] 1

[in] Does C=CC[C@]1(C(=O)NCC(O)CO)N=C(c2ccc(OCCCO)cc2)O[C@H]1c1ccccc1 (some centres not stated) have a reported z-score of at least -0.3?
[out] 1

[in] Hi team, for CO[C@]12C=C(Br)[C@@H](C[C@@H]1c1ccccc1)[C@@]1(CO1)C2=O , is the recorded z-score at or above -0.3?
[out] 1

[in] Test whether the compound C[C@@H]1CC[C@H]2C(=O)N3[C@@H](CC[C@@H](C)[C@@H]3c3cccc(N4CCOCC4)c3)C(=O)N2[C@H]1c1cccc(N2CCOCC2)c1 records z-score of -0.3 or higher.
[out] 1

[in] Answer whether z-score of C=C(CCCC)/C(=C/C[C@H](OC(=O)c1ccncc1)c1cccc(OCCO)c1)c1cc(C(=O)OC)ccc1OC is greater than or equal to -0.3.
[out] 0

[in] Check this compound for z-score at or above -0.3: COC(=O)C[C@H]1O[C@]2(C(=O)N(C)c3ccccc32)[C@@H](C)[C@@H]1[Si](C)(C)c1ccc(OC)cc1
[out] 0

[in] Assess whether reported z-score for CC(C)[Si](OCC[C@H]1O[C@]2(C(=O)N(Cc3ccccc3)c3ccccc32)[C@@H](C)[C@@H]1[Si](C)(C)O)(C(C)C)C(C)C sits at -0.3 or higher.
[out] 1

[in] Form field: z-score at least -0.3? Entry: [N-]=[N+]=Nc1ccccc1C[C@@]1(C(=O)N2CCOCC2)N=C(c2ccc(OCCCO)cc2)O[C@@H]1c1ccccc1N=[N+]=[N-]
[out] 0

[in] Reported z-score reaches at least -0.3 for CCN1C(C)=C(C(=O)OC)[C@@H](c2ccccc2)N2C(=O)[C@@]3(C(=O)OC)O[C@@]12[C@@H]1C(=O)N(C)C(=O)[C@@H]13 ?
[out] 1

[in] Confirm if z-score reported for the compound N#Cc1ccc(NN2C(C(O)CCc3ccccc3)C=CC3C(=O)N(c4ccccc4)C(=O)C32)cc1 (configuration not stated) is -0.3 or above.
[out] 0

[in] Does z-score meet or surpass -0.3 for [N-]=[N+]=NCc1ccccc1C[C@@]1(C(=O)N2CCOCC2)N=C(c2ccc(OCCCO)cc2)O[C@@H]1c1ccccc1N=[N+]=[N-] ?
[out] 1

[in] Say whether Cc1ccccc1C(O)C1C=CC2C(=O)N(c3ccccc3)C(=O)C2N1Nc1ccc(C#N)cc1 (configuration not stated) shows z-score of -0.3 or more.
[out] 0

[in] Reported z-score at or above -0.3? CC(=O)NCCCC[C@@H]1NC(=O)[C@@H]2C[C@H](C(=O)NCc3ccc(F)cc3)[C@H](c3cccc(OCCO)c3)N2C1=O
[out] 1

[in] Tell me whether z-score is at least -0.3 here: COC(=O)C[C@H]1O[C@]2(C(=O)N(Cc3ccccc3)c3ccc(I)cc32)[C@@H](C)[C@@H]1[Si](C)(C)c1ccc(OC)cc1
[out] 1

[in] Record C[C@@H]1NC(=O)CC=C[C@@H](C)[C@@H]2C=C[C@H](O)[C@@H](COC(=O)[C@H](C)NC(=O)CC=C[C@@H](C)[C@@H]3C=C[C@H](O)[C@@H](COC1=O)O3)O2 ; criterion: z-score no lower than -0.3. Met?
[out] 1

[in] Item C#CCCCON=C1C[C@@H](O)[C@@H](O)[C@@H]2[C@@H]3C(=O)N(Cc4ccc5c(c4)OCO5)C(=O)[C@@H]3CC[C@H]12 with z-score of -0.3 or above?
[out] 1

[in] # check: z-score of CN(C)c1ccc(C(O)C2C=CC3C(=O)NC(=O)C3N2Nc2ccc(Cl)cc2Cl)cc1 (configuration not stated) is greater than or equal to -0.3
[out] 0
